Taken from ChEMBL document CHEMBL2396594.

procedure_text: Inhibition of human plasma alpha-thrombin assessed as spectrozyme TH hydrolysis preincubated for 10 mins by spectrophotometric analysis
Assay type: cell-free
experimental_conditions: read-out: pIC50 (converted)
Response field label takes condition met when IC50 is strictly below 6 µM and condition not met in all other cases.

{"columns": ["smiles_data", "label_class"],
 "data": [
  ["CCOC(=O)c1c(C)oc2cc(OC)c(OCc3oc4cc(OC)c(OCc5oc6cc(OC)c(OS(=O)(=O)O)cc6c5C(=O)OC(C)(C)C)cc4c3C(=O)OCC)cc12", "condition not met"]
]}

Query string: State whether 6 µM exceeds IC50 recorded for CCOC(=O)c1c(C)oc2cc(OC)c(OCc3oc4cc(OC)c(OCc5oc6cc(OS(=O)(=O)O)c(OC)cc6c5C(=O)OCC)cc4c3C(=O)OCC)cc12 .
Result string: condition not met

Query string: In the record for CCOC(=O)c1c(C)oc2cc(OC)c(OCc3oc4cc(OC)c(OCc5oc6cc(OC)c(OS(=O)(=O)O)cc6c5C(=O)OC)cc4c3C(=O)OCC)cc12 , is IC50 less than 6 µM?
Result string: condition met

Query string: # check: IC50 < 6 µM for CCOC(=O)c1c(COc2cc3c(C(=O)O)c(C)oc3cc2OC)oc2cc(OC)c(OCc3oc4cc(OC)c(OS(=O)(=O)O)cc4c3C(=O)OCC)cc12
Result string: condition not met

Query string: Please let me know if CCOC(=O)c1c(C)oc2cc(OC)c(OCc3oc4cc(OC)c(OCc5oc6cc(OC)c(OCc7oc8cc(OC)c(OS(=O)(=O)O)cc8c7C(=O)OCC)cc6c5C(=O)OCC)cc4c3C(=O)OCC)cc12 shows IC50 below 6 µM.
Result string: condition not met
